Biological target: T1, Anti-CD28 scFv (VH-linker 1-VL) (biotinylated (site not stated))
T1 construct: biotinylated and captured on neutravidin coated plates in the phage ELISA
T1 sequence (scFv, as listed by the source): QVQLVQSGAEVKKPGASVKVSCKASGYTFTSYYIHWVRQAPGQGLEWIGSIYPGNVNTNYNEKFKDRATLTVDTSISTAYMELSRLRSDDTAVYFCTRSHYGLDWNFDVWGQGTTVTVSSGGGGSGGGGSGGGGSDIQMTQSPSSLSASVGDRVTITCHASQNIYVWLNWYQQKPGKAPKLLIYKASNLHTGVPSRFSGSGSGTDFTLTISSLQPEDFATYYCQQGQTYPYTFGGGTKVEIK
Test: phage ELISA, scFv wells pre-incubated with soluble CD28 (competitor); background signal 0.066
Recorded Phage binding ELISA CD28 scFv signal in presence of CD28 values for a group of binders are listed next.

MDWCPIDLWNECFF [Phage-19] : 0.187

// Phage binding ELISA CD28 scFv signal in presence of CD28 lookup, binder = MDWCPRHLWAECFF [Phage-86] , result: 0.292

// Phage binding ELISA CD28 scFv signal in presence of CD28 lookup, binder = MDWCPRDLWHECFS [Phage-79] , result: 0.382

// Phage binding ELISA CD28 scFv signal in presence of CD28 lookup, binder = MDWCPRYLWFECFA [Phage-114] , result: 0.21
